- assaySystem: PRKCD (human)
- assayText: split-luciferase competition binding
- testSettings: compound 10.0 µM
readoutName: inhibition (%)
Give the quantity in %, number only.

Here is how some compounds turned out for inhibition.
Fc1ccc(Cl)cc1-c1nc(Nc2ccncc2)c2nccnc2n1 :: 10
CC(C)(C)n1nc(-c2ccc(Cl)cc2)c2c(N)ncnc21 :: 0

Now for another entry.
Input line: What inhibition value was documented for this compound, CN(C)CCCn1cc(C2=C(c3c[nH]c4ccccc34)C(=O)NC2=O)c2ccccc21 ?
Output line: 52

---

- assaySystem: AKT1 (human) (UniProt P31749)
- Sequence (P31749 whole entry, looked up): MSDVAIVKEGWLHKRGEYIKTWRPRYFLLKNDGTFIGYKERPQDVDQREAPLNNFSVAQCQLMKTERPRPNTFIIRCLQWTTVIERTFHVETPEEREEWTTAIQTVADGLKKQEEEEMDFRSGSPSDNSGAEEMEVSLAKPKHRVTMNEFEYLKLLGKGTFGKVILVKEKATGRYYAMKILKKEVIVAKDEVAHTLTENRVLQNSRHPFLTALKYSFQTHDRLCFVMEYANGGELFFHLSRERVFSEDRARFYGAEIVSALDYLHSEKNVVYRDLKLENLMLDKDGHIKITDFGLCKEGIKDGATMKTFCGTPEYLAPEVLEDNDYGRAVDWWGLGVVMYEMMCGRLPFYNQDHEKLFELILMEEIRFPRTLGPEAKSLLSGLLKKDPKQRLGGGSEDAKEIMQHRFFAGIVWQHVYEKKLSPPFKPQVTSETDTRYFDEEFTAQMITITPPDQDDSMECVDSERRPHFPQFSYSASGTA
- assayText: split-luciferase competition binding
- testSettings: compound 10.0 µM
readoutName: inhibition (%)
Give the value in % but do not write % after it.

// below: answered compounds
Nc1ccc(-c2cccc3c(=O)cc(N4CCOCC4)oc23)cc1 :: 2
O=c1cc(N2CCOCC2)oc2c(-c3ccccc3)cccc12 :: 0
C/C(O)=C(\C#N)C(=O)Nc1cc(Br)ccc1Br :: 0

Input line: Reported inhibition, compound O=C1NC(=O)c2c1c1c3ccccc3[nH]c1c1[nH]c3ccccc3c21 : ____
Output line: 22

Input line: Repeat for the following compound: O=C(NC(NC(=S)Nc1ccc(F)c([N+](=O)[O-])c1)C(Cl)(Cl)Cl)C(c1ccccc1)c1ccccc1 (stereo unspecified)
Output line: 5

Input line: Similarly, COc1cc2nccc(Oc3ccc(NC(=O)Nc4ccc(F)cc4F)c(F)c3)c2cc1OC ?
Output line: 6

Input line: Now consider O=C1NC(=O)C(c2ccccc2[N+](=O)[O-])=C1Nc1ccc(O)c(Cl)c1 and answer again.
Output line: 0

Input line: Request: CC[C@@H](CO)Nc1nc(NCc2ccccc2)c2ncn(C(C)C)c2n1
Output line: 0

---

- assaySystem: PRKACB (human) (UniProt P22694)
- assayText: split-luciferase competition binding
- testSettings: compound 10.0 µM
Items are presented alongside their recorded inhibition.
Record the value in %, omitting the unit from your answer.

Brc1c(Br)c(Br)c2[nH]nnc2c1Br :: 1
CC(=O)c1c(O)c(C)c(O)c(Cc2c(O)c3c(c(C(=O)/C=C/c4ccccc4)c2O)OC(C)(C)C=C3)c1O :: 22
O=C1NC(=O)c2c1c1c3ccccc3n3c1c1c2c2ccccc2n1C1CCC3O1 :: 71

Input line: Dear colleague, I am looking for the recorded inhibition of the following compound: C=CC(=O)c1ccc2ccccc2c1
Output line: 0

Input line: // next record CC(C)(C)n1nc(-c2cccc3ccccc23)c2c(N)ncnc21
Output line: 21

Input line: Param item: O=C1NC(=O)c2cc(Nc3ccc(F)cc3)c(Nc3ccc(F)cc3)cc21
Output line: 8

---

Listing of entries alongside the reported inhibition.
- assaySystem: RPS6KA6 KD1 (human) (UniProt Q9UK32)
- Sequence (Q9UK32 whole entry, looked up): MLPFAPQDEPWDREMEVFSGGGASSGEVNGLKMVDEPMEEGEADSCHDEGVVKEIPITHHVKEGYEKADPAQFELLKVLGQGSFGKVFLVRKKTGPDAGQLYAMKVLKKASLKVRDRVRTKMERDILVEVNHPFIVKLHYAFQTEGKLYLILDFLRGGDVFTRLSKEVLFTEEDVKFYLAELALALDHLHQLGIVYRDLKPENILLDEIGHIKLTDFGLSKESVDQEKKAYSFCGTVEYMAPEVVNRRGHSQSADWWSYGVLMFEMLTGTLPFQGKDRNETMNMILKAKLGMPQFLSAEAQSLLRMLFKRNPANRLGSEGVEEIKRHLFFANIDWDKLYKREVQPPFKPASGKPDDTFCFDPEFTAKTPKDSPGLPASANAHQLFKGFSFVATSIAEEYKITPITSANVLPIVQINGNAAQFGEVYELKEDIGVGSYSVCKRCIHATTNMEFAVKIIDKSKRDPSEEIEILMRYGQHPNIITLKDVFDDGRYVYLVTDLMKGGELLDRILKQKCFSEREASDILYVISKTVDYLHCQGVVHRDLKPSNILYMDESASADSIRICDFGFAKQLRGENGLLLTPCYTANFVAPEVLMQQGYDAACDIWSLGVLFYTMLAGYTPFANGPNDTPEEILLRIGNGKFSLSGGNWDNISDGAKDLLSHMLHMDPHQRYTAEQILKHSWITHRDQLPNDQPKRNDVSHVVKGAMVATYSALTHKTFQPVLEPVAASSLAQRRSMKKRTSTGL
- assayText: split-luciferase competition binding
- testSettings: compound 10.0 µM
Numbers only here, please. The scale is %.

Some solved cases for reference:
O=C(Nc1cc(C(F)(F)F)cc(C(F)(F)F)c1)c1cc(Cl)ccc1O :: 0
COc1cc2c(Nc3ccc(NC(=O)c4ccccc4)cc3)ncnc2cc1OCCCN1CCOCC1 :: 3
O=C(c1ccc(Nc2nccc(-c3cc4ccccc4s3)n2)cc1)N1CCC(N2CCCC2)CC1 :: 10

Input line: Fill in the recorded inhibition for this compound, with RPS6KA6 KD1 (human) (UniProt Q9UK32) as test system: Fc1ccc(Cl)cc1-c1nc(Nc2ccncc2)c2nccnc2n1
Output line: 13

Input line: What do we get for CC(C)[C@H](CO)Nc1nc(Nc2ccc(C(=O)O)c(Cl)c2)c2ncn(C(C)C)c2n1 ?
Output line: 50

Input line: Queued: Cc1ccc(-c2nn(C(C)(C)C)c3ncnc(N)c23)cc1
Output line: 14

Input line: NC(=O)c1ccc(-c2nc(-c3ccccn3)c(-c3ccc4c(c3)OCO4)[nH]2)cc1 , same question.
Output line: 0

Input line: Try this compound next: O=S(=O)(c1cccc2c(Cl)cccc12)N1CCCNCC1
Output line: 0

Input line: Subsequent entry: C/C(O)=C(\C#N)C(=O)Nc1cc(Br)ccc1Br
Output line: 0

Input line: Queued: COc1ccc(Cl)cc1NC(=O)Nc1cc(C)nc2ccccc12
Output line: 0

---

- assaySystem: RPS6KA3 KD1 (human)
- assayText: split-luciferase competition binding
- testSettings: compound 10.0 µM
readoutName: inhibition (%)
Could you give me the number in %? Just the number is fine.

The examples below pair each entry with its known result.
N#CC(=C(\N)Sc1ccccc1N)/C(C#N)=C(/N)Sc1ccccc1N :: 0
O=c1cc(N2CCOCC2)oc2c(-c3ccccc3)cccc12 :: 0
CO[C@@H]1[C@H](N(C)C(=O)c2ccccc2)C[C@H]2O[C@]1(C)n1c3ccccc3c3c4c(c5c6ccccc6n2c5c31)C(=O)NC4 :: 79
N#C/C(=C(/N)Sc1ccc(N)cc1)c1ccccc1C(F)(F)F :: 0

Let us examine a further case.
Input line: Item COc1cc2ncnc(Nc3ccc(Cl)cc3F)c2cc1OC has what recorded inhibition?
Output line: 8

---

- assaySystem: PRKCG (human) (UniProt P05129)
- assayText: split-luciferase competition binding
- testSettings: compound 10.0 µM
readoutName: inhibition
In your response, the unit should come after the numeric value.

The following compounds have reported results that may help.
Cn1cnc2c(NCc3ccccc3)nc(NCCO)nc21 :: 0%
O=S(=O)(c1cccc2cnccc12)N1CCCNCC1 :: 0%
Nc1ccc(-c2cccc3c(=O)cc(N4CCOCC4)oc23)cc1 :: 0%
O=c1cc(N2CCOCC2)oc2c1ccc1ccccc12 :: 3%
COc1cc2ncn(-c3cc(OCc4ccccc4C(F)(F)F)c(C(N)=O)s3)c2cc1OC :: 10%
O=C1NC(=O)c2c1c1c3ccccc3n3c1c1c2c2ccccc2n1C1CCC3O1 :: 45%

Input line: Lab note: need inhibition with PRKCG (human) (UniProt P05129) for entry CC(C)[C@H](CO)Nc1nc(Nc2ccc(C(=O)O)c(Cl)c2)c2ncn(C(C)C)c2n1 , please look it up.
Output line: 0%

Input line: Same thing, different compound: NC(=O)c1ccc(-c2nc(-c3ccccn3)c(-c3ccc4c(c3)OCCO4)[nH]2)cc1
Output line: 0%

Input line: Next record, please: CN1CCC(Nc2ncc3ncnc(Nc4ccc(F)c(Cl)c4)c3n2)CC1
Output line: 0%

Input line: Entry O=S(=O)(NCCNC/C=C/c1ccc(Br)cc1)c1cccc2cnccc12 please
Output line: 0%

Input line: Check COc1ccc(Cl)cc1NC(=O)Nc1cc(C)nc2ccccc12 too.
Output line: 0%

---

- assaySystem: PRKACB (human)
- assayText: split-luciferase competition binding
- testSettings: compound 10.0 µM
readoutName: inhibition (%)
Give a bare numeral; the unit % is implied.

Record excerpt, results attached:
COc1cc2ncnc(Nc3ccc(F)c(Cl)c3)c2cc1OCCCN1CCOCC1 :: 0
CS(=O)c1ccc(-c2nc(-c3ccc(F)cc3)c(-c3ccncc3)[nH]2)cc1 (configuration not stated) :: 0
CC1=C(O)C(=O)[C@@H]2OC2C1=O (some centres not stated) :: 0
COc1cc2c(Nc3ccc(NC(=O)c4ccccc4)cc3)ncnc2cc1OCCCN1CCOCC1 :: 0
COc1cc2nccc(Oc3ccc(NC(=O)Nc4ccc(F)cc4F)c(F)c3)c2cc1OC :: 5

Input line: I'd like to know its inhibition. The compound in question is c1ccc(-c2n[nH]cc2-c2ccnc3ccccc23)nc1
Output line: 0

Input line: Another compound: COc1ccc(Cl)cc1NC(=O)Nc1cc(C)nc2ccccc12
Output line: 0

Input line: Another compound: Cc1cc(I)ccc1Nc1c(C(=O)NOCC2CC2)cc(F)c(F)c1F
Output line: 0

Input line: Another: N#C/C(=C\c1ccc(O)c(O)c1)C(N)=S
Output line: 0

Input line: Next compound up: Nc1ccc(-c2cccc3c(=O)cc(N4CCOCC4)oc23)cc1
Output line: 0

---

- Test system: PRKACA (mouse)
- assayText: split-luciferase competition binding
- testSettings: compound 10.0 µM; accession and sequence are those of the human protein
Classes by inhibition: interval 1 (below 4%), interval 2 (4% to below 9%), interval 3 (9% or more)

Cn1cnc2c(NCc3ccccc3)nc(NCCO)nc21 :: interval 2
CO[C@@H]1[C@H](N(C)C(=O)c2ccccc2)C[C@H]2O[C@]1(C)n1c3ccccc3c3c4c(c5c6ccccc6n2c5c31)C(=O)NC4 :: interval 3
CN1CCC(Nc2ncc3ncnc(Nc4ccc(F)c(Cl)c4)c3n2)CC1 :: interval 2
CC(C)(C)n1nc(-c2cccc3ccccc23)c2c(N)ncnc21 :: interval 3
O=S(=O)(c1cccc2c(Cl)cccc12)N1CCCNCC1 :: interval 1
Oc1ccc(-c2nc(-c3ccc(F)cc3)c(-c3ccncc3)[nH]2)cc1 :: interval 3

Next item in the queue.
Input line: Class? Entry: CCN(CC)CCNC(=O)c1c(C)[nH]c(/C=C2\C(=O)Nc3ccc(F)cc32)c1C
Output line: interval 1
